Target: T1, human GPVI protein, soluble extracellular domain (D1 and D2) (human, UniProt Q9HCN6 21-267)
T1 construct: extracellular domain; also called hGPVI; human glycoprotein VI
T1 sequence (looked up): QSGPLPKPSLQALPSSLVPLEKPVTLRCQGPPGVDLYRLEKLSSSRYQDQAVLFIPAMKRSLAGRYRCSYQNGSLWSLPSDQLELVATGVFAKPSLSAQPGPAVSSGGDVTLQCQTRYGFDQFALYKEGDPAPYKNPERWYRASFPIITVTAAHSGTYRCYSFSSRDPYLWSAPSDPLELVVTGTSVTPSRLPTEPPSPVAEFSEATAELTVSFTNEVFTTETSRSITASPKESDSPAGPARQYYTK
Assay: SPR (Biacore 3000), human GPVI immobilised, Fab analyte
observed property: kon (M⁻¹ s⁻¹)
Write the number in M⁻¹ s⁻¹ without appending the unit.

See these solved cases before continuing.
humanized anti-GPVI Fab VL1/VH3 (Fab, V domains shown, Recombinant Fab: VH fused to CH1 of human IGHG1 (Q569F4), HC ends in DKTHT; VL fused to human constant kappa (Q502W4); also called VL1 with VH3) VH: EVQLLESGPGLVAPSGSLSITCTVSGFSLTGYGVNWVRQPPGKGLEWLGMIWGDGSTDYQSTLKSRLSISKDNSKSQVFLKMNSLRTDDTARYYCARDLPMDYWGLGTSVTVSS VL: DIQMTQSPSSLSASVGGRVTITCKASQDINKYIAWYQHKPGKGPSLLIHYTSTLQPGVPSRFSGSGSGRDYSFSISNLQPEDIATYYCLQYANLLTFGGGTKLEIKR    148000
humanized anti-GPVI Fab VL1/VH5 (Fab, V domains shown, Recombinant Fab: VH fused to CH1 of human IGHG1 (Q569F4), HC ends in DKTHT; VL fused to human constant kappa (Q502W4); also called VL1 with VH5) VH: QVQLQESGPGLVAPSQSLSITCTVSGFSLTGYGVNWVRQPPSRGLEWLGMIWGDGSTDYQSTLKSRLSISKDNSKSQVFLKMNSLTTDDTARYYCARDLPMDEWGQGTSVTVSS VL: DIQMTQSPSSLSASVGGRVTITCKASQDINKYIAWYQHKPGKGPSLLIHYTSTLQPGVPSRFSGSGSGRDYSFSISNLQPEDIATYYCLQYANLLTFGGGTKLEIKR    81000

Proceed to the following item.
// query Consider the binder humanized anti-GPVI Fab VL1/VH1 (Fab, V domains shown, Recombinant Fab: VH fused to CH1 of human IGHG1 (Q569F4), HC ends in DKTHT; VL fused to human constant kappa (Q502W4); also called VL1 with VH1) VH: QVQLQESGPGLVAPSQSLSITCTVSGFSLTGYGVNWVRQPPSRGLEWLGMIWGDGSTDYQSTLKSRLSISKDTSKSQVFLKMNSLTTDDTARYYCARDLPMDYWGQGTSVTVSS VL: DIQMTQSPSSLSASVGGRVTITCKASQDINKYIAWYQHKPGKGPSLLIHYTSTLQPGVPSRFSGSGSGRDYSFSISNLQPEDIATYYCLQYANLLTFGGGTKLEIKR and give its recorded kon.
// result 111000
